Source listed as ChEMBL document CHEMBL3832547.

Experiment: Pharmacokinetic parameters for Letrozole evaluated following single oral administration of Letrozole tablets
Assay type: ADME, organism-based
Set-up: dose 2.5 mg, route oral
Details: human, in vivo, 2.5 mg
assay_endpoint: Cmax

Identify the reported Cmax for the following entry. `N#Cc1ccc(C(c2ccc(C#N)cc2)n2cncn2)cc1`
115 nM

---

Test: Pharmacokinetic parameters for Letrozole evaluated following single oral administration of Letrozole tablets
Assay type: ADME, organism-based
Parameters: dose 2.5 mg, route oral
Settings: human, in vivo, 2.5 mg
assay_endpoint: CL/F (mL/min/kg)
Numeric answer only, unit mL/min/kg assumed.

Complete the entry with CL/F for `N#Cc1ccc(C(c2ccc(C#N)cc2)n2cncn2)cc1`
0.58
